# test-system: T1, recombinant human C5a (human, UniProt P01031 678-751)
# T1 sequence (looked up): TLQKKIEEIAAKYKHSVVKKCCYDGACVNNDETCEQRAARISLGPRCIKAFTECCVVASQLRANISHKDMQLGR
# experimental-protocol: circular dichroism titration + other fluorescence titration
pKd: −log10 of the molar value.
measured-quantity: pKd

binder="MDSFNYTTPDYGHYDDKDTLDLNTPVDK (peptide, UniProt P21730 1-28, looked up) [SR3, native NT-peptide of C5aR1 (Met1-Lys28)]" measured_quantity=pKd observed_value="6.71 to 6.90"

Okay, next one:
## Task Fill in the blank: the reported pKd of MDSFNATTPDAGHADDKDTLDLNTPVDK (peptide, UniProt P21730 1-28, looked up) [SR5, Tyr/Ala mutant NT-peptide of C5aR1 (Met1-Lys28)] is ____.
## Result 6.91 to 6.98
